Where do these numbers come from? They come from ChEMBL document CHEMBL1649124.

Please respond with reported MIC for every item in the list.
- Test system: Acinetobacter pittii
- Run Description: Antibacterial activity against Acinetobacter genomosp. 3 isolate 67 by Etest method
- Assay type: functional
Entry rule: numbers only, all in µg/mL.

What does the record list as MIC for CO/N=C(\C(=O)N[C@@H]1C(=O)N2C(C(=O)O)=C(COC(N)=O)CS[C@H]12)c1ccco1 ?
48

Try C[C@@H](O)[C@H]1C(=O)N2C(C(=O)O)=C(SCCNC=N)C[C@H]12 [IMIPENEM ANHYDROUS] next.
0.19

Try CCN1CCN(C(=O)N[C@@H](C(=O)N[C@@H]2C(=O)N3[C@@H]2SC(C)(C)[C@@H]3C(=O)O)c2ccccc2)C(=O)C1=O next.
16

Try Cc1onc(-c2ccccc2Cl)c1C(=O)N[C@@H]1C(=O)N2[C@@H]1SC(C)(C)[C@@H]2C(=O)O next.
1880

Try C[C@@H](O)[C@H]1C(=O)N2C(C(=O)O)=C(S[C@@H]3CN[C@H](C(=O)N(C)C)C3)[C@H](C)[C@H]12 next.
0.5

###

- Tested on: Acinetobacter pittii
- Run Description: Antibacterial activity against Acinetobacter genomosp. 3 isolate 195 by Etest method
- Assay type: functional
Please respond with reported MIC for every item in the list.
Entry rule: numbers only, all in µg/mL.

What does the record list as MIC for CO/N=C(\C(=O)N[C@@H]1C(=O)N2C(C(=O)[O-])=C(C[N+]3(C)CCCC3)CS[C@H]12)c1csc(N)n1 ?
6

Try C[C@@H](O)[C@H]1C(=O)N2C(C(=O)O)=C(SCCNC=N)C[C@H]12 [IMIPENEM ANHYDROUS] next.
0.19

###

Please respond with reported MIC for every item in the list.
- Tested on: Acinetobacter pittii
- Run Description: Antibacterial activity against Acinetobacter genomosp. 3 isolate 243 by Etest method
- Assay type: functional
Entry rule: numbers only, all in µg/mL.

Please state recorded MIC (tested on Acinetobacter pittii) of CO/N=C(\C(=O)N[C@@H]1C(=O)N2C(C(=O)O)=C(COC(C)=O)CS[C@H]12)c1csc(N)n1 [CEFOTAXIME]
16

Try CCN1CCN(C(=O)N[C@@H](C(=O)N[C@@H]2C(=O)N3[C@@H]2SC(C)(C)[C@@H]3C(=O)O)c2ccccc2)C(=O)C1=O [PIPERACILLIN] next.
32

Try Cc1onc(-c2ccccc2Cl)c1C(=O)N[C@@H]1C(=O)N2[C@@H]1SC(C)(C)[C@@H]2C(=O)O [CLOXACILLIN] next.
2050

Try C[C@@H](O)[C@H]1C(=O)N2C(C(=O)O)=C(SCCNC=N)C[C@H]12 [IMIPENEM ANHYDROUS] next.
0.19

Try C[C@@H](O)[C@H]1C(=O)N2C(C(=O)O)=C(S[C@@H]3CN[C@H](C(=O)N(C)C)C3)[C@H](C)[C@H]12 [MEROPENEM] next.
0.25

###

Please respond with reported MIC for every item in the list.
- Test system: Acinetobacter pittii
- Run Description: Antibacterial activity against Acinetobacter genomosp. 3 isolate 103 by Etest method
- Format: functional
Residues, ends and D or L forms follow the SMILES beside them. *: point of attachment. βNA = c1ccc2cc(N*)ccc2c1
Entry rule: numbers only, all in µg/mL.

What does the record list as MIC for CO/N=C(\C(=O)N[C@@H]1C(=O)N2C(C(=O)[O-])=C(C[N+]3(C)CCCC3)CS[C@H]12)c1csc(N)n1 ?
3

Try Cl.Cl.N=C(N)NCCC[C@H](NC(=O)[C@@H](N)Cc1ccccc1)C(=O)Nc1ccc2ccccc2c1 (H-Phe-Arg-βNA) next.
400

Try CCN1CCN(C(=O)N[C@@H](C(=O)N[C@@H]2C(=O)N3[C@@H]2SC(C)(C)[C@@H]3C(=O)O)c2ccccc2)C(=O)C1=O next.
24

Try CO/N=C(\C(=O)N[C@@H]1C(=O)N2C(C(=O)O)=C(COC(C)=O)CS[C@H]12)c1csc(N)n1 next.
16

Try CO/N=C(\C(=O)N[C@@H]1C(=O)N2C(C(=O)O)=C(COC(N)=O)CS[C@H]12)c1ccco1 next.
48

Try C[C@@H](O)[C@H]1C(=O)N2C(C(=O)O)=C(S[C@@H]3CN[C@H](C(=O)N(C)C)C3)[C@H](C)[C@H]12 next.
3

Try CO[C@@]1(NC(=O)Cc2cccs2)C(=O)N2C(C(=O)O)=C(COC(N)=O)CS[C@@H]21 next.
192

Try Cc1onc(-c2ccccc2Cl)c1C(=O)N[C@@H]1C(=O)N2[C@@H]1SC(C)(C)[C@@H]2C(=O)O next.
1020

Try CC(C)(O/N=C(\C(=O)N[C@@H]1C(=O)N2C(C(=O)[O-])=C(C[n+]3ccccc3)CS[C@H]12)c1csc(N)n1)C(=O)O next.
4

Try C[C@@H](O)[C@H]1C(=O)N2C(C(=O)O)=C(SCCNC=N)C[C@H]12 [IMIPENEM ANHYDROUS] next.
0.75
